Listed next: entries and their corresponding MFI at 33.3 nM.
molecular target: CTLA-4 (human); assay: flow cytometry, CHO cells expressing CTLA4
Sequence (chain, as listed by the source): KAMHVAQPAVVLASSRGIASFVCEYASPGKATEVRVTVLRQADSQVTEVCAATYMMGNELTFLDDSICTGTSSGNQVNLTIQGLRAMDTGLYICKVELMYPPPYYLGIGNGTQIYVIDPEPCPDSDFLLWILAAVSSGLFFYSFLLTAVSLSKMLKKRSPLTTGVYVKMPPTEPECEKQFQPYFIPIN

BINDER: variant CD80 E35D/M47V/N48K/V68M/K89N (Fc fusion) VIHVTKEVKEVATLSCGHNVSVEELAQTRIYWQKDKKMVLTMMSGDVKIWPEYKNRTIFDITNNLSIMILALRPSDEGTYECVVLKYENDAFKREHLAEVT
ENDPOINT UNIT: MFI
MFI at 33.3 nM: 807
//
BINDER: variant CD80 E35D/L85Q/K93T/E95V/L97Q (Fc fusion) VIHVTKEVKEVATLSCGHNVSVEELAQTRIYWQKDKKMVLTMMSGDMNIWPEYKNRTIFDITNNLSIVILALRPSDEGTYECVVQKYEKDAFTRVHQAEVT
ENDPOINT UNIT: MFI
MFI at 33.3 nM: 246000
//
BINDER: variant CD80 E35D/M47I/L85Q/D90G (Fc fusion) VIHVTKEVKEVATLSCGHNVSVEELAQTRIYWQKDKKMVLTMMSGDINIWPEYKNRTIFDITNNLSIVILALRPSDEGTYECVVQKYEKGAFKREHLAEVT
ENDPOINT UNIT: MFI
MFI at 33.3 nM: 248000
//
BINDER: variant CD80 E35D/D46E/M47V/V68M/D90G/K93E (Fc fusion) VIHVTKEVKEVATLSCGHNVSVEELAQTRIYWQKDKKMVLTMMSGEVNIWPEYKNRTIFDITNNLSIMILALRPSDEGTYECVVLKYEKGAFEREHLAEVT
ENDPOINT UNIT: MFI
MFI at 33.3 nM: 273000
